test system: Raw264.7 cells; assay: Cell number (CellNb) from image analysis of the phenotypic cell-based assay; settings: primary screen, 20 μM
Please go through the items and note down their Primary QIM CellNb.
Give bare numbers.

> print(dat)
                                   molecule         metric.name  quantitative.readout
1  O=C1Nc2ccccc2/C1=N/NC(=O)c1ccncc1 [IPK 000 006 35]  Primary QIM CellNb                 424.3
2  Cc1nn(C)cc1/C=N/NC(=O)c1ccncc1 [IPK 000 079 13]  Primary QIM CellNb                 294.0
3  O=C(Nc1nccs1)c1ccc(COc2ccc(Cl)cc2)o1 [IPK 000 124 54]  Primary QIM CellNb                 503.3
4  CC(Oc1cccc2ccccc12)C(=O)NNC(=O)c1cc2ccccc2oc1=O (centres unmarked) [IPK 000 095 07]  Primary QIM CellNb                 388.3

// moving on: another record for Primary QIM CellNb
Query CCCCN(CCCC)C(=O)c1ccc(C(C)(C)C)cc1 [IPK 000 067 60] yields Primary QIM CellNb of 164.3

FYI, the data here is from patent US8785452B2.
